Taken from PubChem BioAssay (NCATS).

- Condition parameters: Ebola virus entry assay, green channel fluorescence
Entries with a potency or affinity are not part of this list. Active and inactive are the calls of the source.
Property label: outcome

[
  {
    "Molecule": "C=C[C@H]1CN2CC[C@H]1C[C@@H]2[C@@H](O)c1ccnc2ccc(OC)cc12",
    "Recorded value": "inactive"
  },
  {
    "Molecule": "Cc1cccc(Nc2ccccc2C(=O)O)c1C",
    "Recorded value": "inactive"
  },
  {
    "Molecule": "Nc1nc2c(ncn2COCCO)c(=O)[nH]1",
    "Recorded value": "inactive"
  },
  {
    "Molecule": "Cc1nc(N)nc(N)c1-c1ccc(Cl)c(Cl)c1",
    "Recorded value": "inactive"
  },
  {
    "Molecule": "Nc1ccc(O)c(C(=O)O)c1",
    "Recorded value": "inactive"
  },
  {
    "Molecule": "CCCCC1=NC2(CCCC2)C(=O)N1Cc1ccc(-c2ccccc2-c2nn[nH]n2)cc1",
    "Recorded value": "inactive"
  },
  {
    "Molecule": "COc1ccccc1OCC(O)CN1CCN(CC(=O)Nc2c(C)cccc2C)CC1 (stereo not given)",
    "Recorded value": "inactive"
  },
  {
    "Molecule": "NC(=O)c1cn(Cc2c(F)cccc2F)nn1",
    "Recorded value": "inactive"
  },
  {
    "Molecule": "C#C[C@]1(O)CC[C@H]2[C@@H]3CCC4=Cc5oncc5C[C@]4(C)[C@H]3CC[C@@]21C",
    "Recorded value": "inactive"
  },
  {
    "Molecule": "CN1CC(=O)N/C1=N/C(=O)Nc1cccc(Cl)c1",
    "Recorded value": "inactive"
  },
  {
    "Molecule": "CNCC(O)c1ccc(O)cc1 (stereo not given)",
    "Recorded value": "inactive"
  },
  {
    "Molecule": "CC(C)C1CCC(C(=O)N[C@H](Cc2ccccc2)C(=O)O)CC1 (stereo not given in full)",
    "Recorded value": "inactive"
  },
  {
    "Molecule": "O[C@@H]1CO[C@H]2[C@@H]1OC[C@@H]2O",
    "Recorded value": "inactive"
  },
  {
    "Molecule": "Cc1onc(-c2c(Cl)cccc2Cl)c1C(=O)N[C@@H]1C(=O)N2[C@@H]1SC(C)(C)[C@@H]2C(=O)O",
    "Recorded value": "inactive"
  },
  {
    "Molecule": "CNC1(C)C2CCC(C2)C1(C)C (stereo not given)",
    "Recorded value": "inactive"
  },
  {
    "Molecule": "Clc1ccc(C(c2ccccc2Cl)C(Cl)Cl)cc1 (stereo not given)",
    "Recorded value": "inactive"
  },
  {
    "Molecule": "Cc1cn([C@H]2C[C@H](N=[N+]=[N-])[C@@H](CO)O2)c(=O)[nH]c1=O",
    "Recorded value": "inactive"
  },
  {
    "Molecule": "OCCN1C[C@H](O)[C@@H](O)[C@H](O)[C@H]1CO",
    "Recorded value": "inactive"
  },
  {
    "Molecule": "Nc1cccc2c1CN(C1CCC(=O)NC1=O)C2=O (stereo not given)",
    "Recorded value": "inactive"
  },
  {
    "Molecule": "CN(CCOc1ccc(CC2SC(=O)NC2=O)cc1)c1ccccn1 (stereo not given)",
    "Recorded value": "inactive"
  },
  {
    "Molecule": "CN1CCC[C@@H]1Cc1c[nH]c2ccc(CCS(=O)(=O)c3ccccc3)cc12",
    "Recorded value": "inactive"
  },
  {
    "Molecule": "CCC[C@H](N[C@@H](C)C(=O)N1[C@H](C(=O)O)C[C@@H]2CCCC[C@@H]21)C(=O)OCC",
    "Recorded value": "inactive"
  },
  {
    "Molecule": "COc1c(C)c2c(c(O)c1C/C=C(\\C)CCC(=O)O)C(=O)OC2",
    "Recorded value": "inactive"
  },
  {
    "Molecule": "CCC1=C[C@@H]2CN(C1)Cc1c([nH]c3ccccc13)[C@@](C(=O)OC)(c1cc3c(cc1OC)N(C)[C@H]1[C@@](O)(C(=O)OC)[C@H](OC(C)=O)[C@]4(CC)C=CCN5CC[C@]31[C@@H]54)C2",
    "Recorded value": "inactive"
  },
  {
    "Molecule": "CCCCc1nc(Cl)c(CO)n1Cc1ccc(-c2ccccc2-c2nn[nH]n2)cc1",
    "Recorded value": "inactive"
  },
  {
    "Molecule": "Cc1c(OCC(F)(F)F)ccnc1CS(=O)c1nc2ccccc2[nH]1 (stereo not given)",
    "Recorded value": "inactive"
  },
  {
    "Molecule": "N[C@@H]1C[C@H]1c1ccccc1",
    "Recorded value": "inactive"
  },
  {
    "Molecule": "COC(=O)C1=C(C)NC(C)=C(C(=O)OC(C)C)C1c1cccc2nonc12 (stereo not given)",
    "Recorded value": "inactive"
  },
  {
    "Molecule": "CCCCOCCOCCOCc1cc2c(cc1CCC)OCO2",
    "Recorded value": "inactive"
  },
  {
    "Molecule": "CCN1CCN(C(=O)N[C@@H](C(=O)N[C@@H]2C(=O)N3C(C(=O)O)=C(CSc4nnnn4C)CS[C@H]23)c2ccc(O)cc2)C(=O)C1=O",
    "Recorded value": "inactive"
  },
  {
    "Molecule": "CN(N=O)C(=O)N[C@@H]1[C@@H](O)[C@H](O)[C@@H](CO)O[C@@H]1O",
    "Recorded value": "inactive"
  },
  {
    "Molecule": "COc1ccccc1Oc1c(NS(=O)(=O)c2ccc(C(C)(C)C)cc2)nc(-c2ncccn2)nc1OCCO",
    "Recorded value": "inactive"
  },
  {
    "Molecule": "CC(C)NCC(O)COc1cccc2[nH]ccc12 (stereo not given)",
    "Recorded value": "inactive"
  },
  {
    "Molecule": "CCCC(C)(COC(N)=O)COC(=O)NC(C)C (stereo not given)",
    "Recorded value": "inactive"
  },
  {
    "Molecule": "CCN(CC)CCNC(=O)c1cc(Cl)c(N)cc1OC",
    "Recorded value": "inactive"
  },
  {
    "Molecule": "CC(=O)Oc1ccccc1C(=O)Nc1ncc([N+](=O)[O-])s1",
    "Recorded value": "inactive"
  },
  {
    "Molecule": "Cc1cccc(C)c1OCC(C)N (stereo not given)",
    "Recorded value": "inactive"
  },
  {
    "Molecule": "CC[N+](CC)(CC)CC",
    "Recorded value": "inactive"
  },
  {
    "Molecule": "N#CC(C#N)=Cc1ccc(O)c(O)c1",
    "Recorded value": "inactive"
  },
  {
    "Molecule": "CC(C)(C)NCC(O)c1cc(Cl)c(N)c(Cl)c1 (stereo not given)",
    "Recorded value": "inactive"
  },
  {
    "Molecule": "O=C(CCCCCCC(=O)Nc1ccccc1)NO",
    "Recorded value": "inactive"
  },
  {
    "Molecule": "C=CCN1CC[C@]23c4c5ccc(O)c4O[C@H]2C(=O)CC[C@@]3(O)[C@H]1C5",
    "Recorded value": "inactive"
  },
  {
    "Molecule": "Cc1ccc(C(=O)c2cc(O)c(O)c([N+](=O)[O-])c2)cc1",
    "Recorded value": "inactive"
  },
  {
    "Molecule": "NNCCc1ccccc1",
    "Recorded value": "inactive"
  },
  {
    "Molecule": "CC(C)NC[C@@H](O)COc1ccc(CC(N)=O)cc1",
    "Recorded value": "inactive"
  }
]

====

- Tested on: CP260
- Method description: qHTS profiling for inhibitors of Plasmodium falciparum proliferation (AID 504749); note: nearly all actives have a fitted effect of over 60% in size; note: potency is the fitted concentration of half-maximal effect
- Condition parameters: P. falciparum in erythrocytes, SYBR Green DNA, 72 h; series mostly up to 28.7 µM
Results filed as inconclusive are left out. The source made the active and inactive calls. Calls come from the whole dose curve; as a rule, active = well fitted inhibition curve with a large enough effect; inconclusive = small, poorly fitted or top-dose-only effect; inactive = flat fitted curve, though single readings scatter.
Property label: Potency

[
  {
    "Compound": "CCC(COC(=O)c1cc(OC)c(OC)c(OC)c1)(c1ccccc1)N(C)C (configuration not stated)",
    "Recorded value": "inactive"
  },
  {
    "Compound": "CC(C)NCC(O)c1ccccc1Cl (configuration not stated)",
    "Recorded value": "11.2 µM (active)"
  },
  {
    "Compound": "CN1C[C@H](CNC(=O)OCc2ccccc2)C[C@@H]2c3cccc4c3c(cn4C)C[C@H]21",
    "Recorded value": "11.2 µM (active)"
  },
  {
    "Compound": "O=[N+]([O-])c1cc([As](=O)(O)O)ccc1O",
    "Recorded value": "3.16 µM (active)"
  },
  {
    "Compound": "C=C(C)[C@H]1Cc2c(ccc3c2O[C@@H]2COc4cc(OC)c(OC)cc4[C@@H]2C3=O)O1",
    "Recorded value": "inactive"
  },
  {
    "Compound": "CC[N+]1(C)CCCC(OC(=O)C(O)(c2ccccc2)c2ccccc2)C1 (configuration not stated)",
    "Recorded value": "inactive"
  },
  {
    "Compound": "Nc1ccncc1",
    "Recorded value": "inactive"
  },
  {
    "Compound": "CN(C)CCc1ccc(O)cc1",
    "Recorded value": "inactive"
  },
  {
    "Compound": "OCCOc1ccccc1",
    "Recorded value": "inactive"
  },
  {
    "Compound": "CCCC1CCCCN1 (configuration not stated)",
    "Recorded value": "inactive"
  },
  {
    "Compound": "COc1ccc(C(=O)c2c(C)n(CCN3CCOCC3)c3ccccc23)cc1",
    "Recorded value": "inactive"
  },
  {
    "Compound": "CC1OC(C)OC(C)O1 (configuration not stated)",
    "Recorded value": "inactive"
  },
  {
    "Compound": "CCOC(=O)C1(c2ccccc2)CCN(CCC(C#N)(c2ccccc2)c2ccccc2)CC1",
    "Recorded value": "3.55 µM (active)"
  },
  {
    "Compound": "CCCC(C)(COC(N)=O)COC(=O)NC(C)C (configuration not stated)",
    "Recorded value": "inactive"
  },
  {
    "Compound": "CCN(CC)CCOC(=O)C(O)(c1ccccc1)c1ccccc1",
    "Recorded value": "inactive"
  },
  {
    "Compound": "O=C(NC(O)C(Cl)(Cl)Cl)NC(O)C(Cl)(Cl)Cl (configuration not stated)",
    "Recorded value": "inactive"
  },
  {
    "Compound": "O=c1[nH]c2ccccc2n1C1CCN(CCCC(c2ccc(F)cc2)c2ccc(F)cc2)CC1",
    "Recorded value": "12.6 µM (active)"
  },
  {
    "Compound": "CC1NCCOC1c1ccccc1 (configuration not stated)",
    "Recorded value": "inactive"
  },
  {
    "Compound": "CC(=O)Nc1cc([As](=O)(O)O)ccc1O",
    "Recorded value": "inactive"
  },
  {
    "Compound": "Oc1ccccc1-c1ccccc1",
    "Recorded value": "inactive"
  },
  {
    "Compound": "CN1C(=S)CN=C(c2ccccc2)c2cc(Cl)ccc21",
    "Recorded value": "inactive"
  },
  {
    "Compound": "Clc1ccc(COC(Cn2ccnc2)c2ccc(Cl)cc2Cl)cc1 (configuration not stated)",
    "Recorded value": "2.51 µM (active)"
  },
  {
    "Compound": "O=P1(NCCCl)OCCCN1CCCl (configuration not stated)",
    "Recorded value": "inactive"
  },
  {
    "Compound": "Oc1cccc2cccnc12",
    "Recorded value": "inactive"
  },
  {
    "Compound": "O=c1[nH]c2ccccc2n1CCCN1CCC(n2c(=O)[nH]c3cc(Cl)ccc32)CC1",
    "Recorded value": "11.2 µM (active)"
  },
  {
    "Compound": "CC(C)(N)Cc1ccc(Cl)cc1",
    "Recorded value": "inactive"
  },
  {
    "Compound": "NN=C(N)N",
    "Recorded value": "inactive"
  }
]
